molecular target: Alpha-2C adrenergic receptor (Homo sapiens); assay: modulators of alpha2C/GIRK thallium flux, primary screen, cell-based, HEK293 alpha2C/GIRK1/2 (AID 624); details: thallium flux BTC fluorescence, at 10 µM, actives lie on both sides;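 note: slope of fluorescence ratio to pre-addition baseline per second over 15 to 24 s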
Active and inactive are the calls of the source.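 Rule for the calls: active = fluorescence slope after compound addition differing from the mean of all screened samples at 99.7% confidence, in either direction; inactive = the rest.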 Where a SMILES comes first, the peptide text is derived from it.
reported_endpoint: slope

Here are 8 compounds together with their reported answers.
{"columns": ["compound", "system_name", "slope"],
 "data": [
  ["CCCN(CCC)S(=O)(=O)c1ccc(NS(C)(=O)=O)cc1", "Alpha-2C adrenergic receptor (Homo sapiens)", "0.00362 (inactive)"],
  ["CC(C)c1nnc(SCC(=O)NCc2ccco2)n1C", "Alpha-2C adrenergic receptor (Homo sapiens)", "0.00695 (inactive)"],
  ["CCOC(=O)Cc1nnc2c(Nc3ccc(C)cc3)nc3nonc3n12", "Alpha-2C adrenergic receptor (Homo sapiens)", "0.00447 (inactive)"],
  ["Nn1c(Cc2ccccc2F)nnc1SCC(=O)N1CC(=O)Nc2ccccc21", "Alpha-2C adrenergic receptor (Homo sapiens)", "0.00403 (inactive)"],
  ["O=C(Nc1cnn(Cc2ccc(F)cc2)c1)c1cnccn1", "Alpha-2C adrenergic receptor (Homo sapiens)", "0.00522 (inactive)"],
  ["Cn1c(=O)n(Cc2ccc(F)cc2)c(=O)c2c1nc1n2CCCN1Cc1ccccc1", "Alpha-2C adrenergic receptor (Homo sapiens)", "0.00383 (inactive)"],
  ["O=C(Oc1cc2oc(=O)c3c(c2cc1Cl)CCCC3)c1ccco1", "Alpha-2C adrenergic receptor (Homo sapiens)", "0.00588 (inactive)"],
  ["CCn1c(C(=O)N2CCCC(C(=O)NCCCc3ccccc3)C2)cc2sccc21 (stereo not given)", "Alpha-2C adrenergic receptor (Homo sapiens)", "0.00576 (inactive)"]
]}

Respectfully, I request slope for each entry included below.
1. CC(=O)NC(C(=O)NCC(N)=O)C(C)C (stereo not given) (HELM PEPTIDE1{[ac].[CC(C)C(N[*:1])C(=O)[*:2]].G.[am]}$$$$V2.0)
2. COC(=O)c1cc(-c2c(C)oc3cc(O)ccc3c2=O)c(C)o1

Response line:
1: 0.00838 (inactive); 2: 0.0074 (inactive)

====

assay: inhibitors of TNFa-induced NFkB p65 translocation, primary screen, imaging, HUVEC, MLSMR starter and 10KST1 sets (AID 438); details: HUVEC TNFa-induced p65 nuclear translocation; measured here: nuclei count (cytotoxicity indicator), at 2.08 µM;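 note: compound added about 3h40 before a 20 min TNFalpha stimulation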
Tick Criterion met if cell count is 600 or greater. Tick Criterion not met if cell count is less than 600.

Illustrative cases are given below, each with its answer.
{"columns": ["compound", "group_label"],
 "data": [
  ["Clc1ccccc1CN(Cc1ccccc1)c1ncnc2nc[nH]c12", "Criterion not met"],
  ["COC(=O)NCC12CC3CC(C1)CC(CNC(=O)OC)(C3)C2", "Criterion not met"],
  ["COC(=O)c1c(-n2cnnn2)sc(C)c1C", "Criterion not met"],
  ["CC1(C)Cc2c(C#N)c(N3CCN(C(=O)c4ccco4)CC3)nc(Cc3ccccc3)c2CO1", "Criterion not met"],
  ["Clc1ccc2c(c1)[C@H]1OCC[C@H]1[C@@H](c1ccco1)N2", "Criterion met"],
  ["O=c1[nH]c(CN(CCO)CCO)nc2c1C1(CCCCC1)Cc1ccccc1-2", "Criterion met"],
  ["O=C1CC(c2cccs2)CC2=C1C(c1ccccc1)n1ncnc1N2 (stereo unspecified)", "Criterion not met"],
  ["Cn1c(NC(=O)c2ccccc2NC(=O)C(C)(C)C)nc2ccccc21", "Criterion met"]
]}

Shift focus to the following entry.
Prompt line: Kindly determine if cell count recorded for O=C(NCCSc1c[nH]c2ccccc12)c1ccc(Br)o1 is above or exactly 600.
Response line: Criterion not met

====

experiment: inhibitors of mutant huntingtin aggregation, primary screen, imaging, exon1htt(103Q)mCFP cells, high-content imaging (AID 483); settings: exon1htt(103Q)mCFP cell line, aggregate imaging, at 2 µM; measured here: cell count, toxicity;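 note: compound exposure lasted 3 days before fixation; percent of the per-plate median nuclei count of sample wells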
reported_endpoint: nuclei count (%)
Numbers only, in %.

Reference set (5 entries):
{"columns": ["molecule", "units_symbol", "nuclei count"],
 "data": [
  ["C=C(Cl)COC(=O)[C@H]1C2C=CC(C2)C1C(=O)O (stereo partly specified)", "%", 96.9],
  ["O=C1c2ccccc2S(=O)(=O)N1Cc1nnc(-c2ccccc2Br)o1", "%", 106],
  ["COCC(=O)N(c1ccc(C(C)C)cc1)C1C=CS(=O)(=O)C1 (stereo unspecified)", "%", 129],
  ["CSc1nc(C)c(C(=O)Nc2ccccc2)c(C)c1C#N", "%", 103],
  ["Cc1ccc(NC(=O)CN(C)S(=O)(=O)c2cccc3nsnc23)cc1Cl", "%", 105]
]}

Prompt line: Let me know recorded nuclei count for CC1(C)CC(=O)C(C(=O)CCCCC(=O)C2C(=O)CC(C)(C)CC2=O)C(=O)C1 , thanks.
Response line: 100

====

assay: inhibitors of Sendai virus-induced IRF3 signaling, primary screen, TLR/RLR signaling modifier project, cell-based, Sendai virus stimulus, luciferase, 10K MLSCN set (AID 602276); details: HEK293 RL24 IRF3 luciferase reporter, at 10 µM, stronger effect = higher value;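 note: firefly luciferase from ISG56 promoter only with Renilla not read in this screen; 0% = Sendai virus plus DMSO and 100% = medium plus DMSO without virus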
Please go through the items and note down their inhibition.
Answers are plain numbers, in %.

Below are worked cases with known answers.
{"columns": ["molecule", "recorded_measurement"],
 "data": [
  ["Cc1nc2sc(C(c3cccs3)N3CC(C)CC(C)C3)c(O)n2n1 (stereo not given)", 11.2],
  ["O=C(NC(=O)c1cccc(F)c1)OC[C@@H]1CCCN2CCCC[C@H]12", 8.41],
  ["CC(C)N1C(=O)C2C(C(=O)NC3CCCCC3)C3C=CC2(O3)C1C(=O)NC1CCCC1 (stereo not given)", 8.4],
  ["NC(=O)COC(=O)c1ccc(S(=O)(=O)N2CCCCCC2)cc1", 11],
  ["Cn1c(SCCN2CCCCC2)nnc1-c1ccccc1Br", 13.4],
  ["CC1Cc2nc(SCC(=O)Nc3ccc4c(c3)OCO4)n(-c3ccc(F)cc3)c(=O)c2S1 (stereo not given)", -0.186],
  ["CCC(C)(NC(=O)CNC(C)=O)C(=O)NC1CCCCC1 (stereo not given)", -6.71],
  ["Cc1ccc(Cn2nnnc2CN2CCC(O)(c3ccccc3F)CC2)cc1", 20.8]
]}

Hello, I would appreciate it if you could give inhibition for each entry below.
1. COc1ccc(-c2ccc(Nc3ccc(S(=O)(=O)N4CCCC4)cc3)nn2)cc1OC
2. O=c1c2ccccc2nnn1CSc1nnc2sc3ccccc3n12
3. Cc1cc(C)n(-c2nc3c(c(=O)n(Cc4ccc(Cl)c(Cl)c4)c(=O)n3C)n2C)n1
4. CN(C)S(=O)(=O)c1ccc(Oc2ccc(S(=O)(=O)N(C)C)cc2)cc1
5. COc1ccccc1C(=O)n1nc(-c2ccc(Cl)cc2)nc1N

Response line:
1: -5.55; 2: 49; 3: 4.56; 4: -5.78; 5: 2.38

For each entry beneath this line, provide reported inhibition.
1. Cc1ccc(S(=O)(=O)NCC(=O)N(CC(=O)NC2CCCCC2)Cc2ccco2)cc1
2. Cc1ccnc(SCCn2c(N3CCN(Cc4ccccc4)CC3)nc3c2c(=O)[nH]c(=O)n3C)n1
3. COc1ccc(CCNc2oc(COc3ccc(F)cc3)nc2C#N)cc1
4. CC(=O)OC1CSc2nc3ccccc3n2C1 (stereo not given)
5. COCCNC(=O)CN1CCN(C(c2ccccc2)c2ccccc2)CC1

Response line:
1: 8.19; 2: -0.348; 3: 15.6; 4: 7.55; 5: -12.4

====

assay: inhibitors of E-selectin induction by TNFa, primary screen, imaging, HUVEC, immunofluorescence, MLSMR starter and 10KST1 sets (AID 487); conditions: HUVEC TNFalpha-induced E-selectin immunofluorescence imaging, at 2 µM; measured here: cell number, toxicity;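 note: 100% = median nuclei count of all wells on the same plate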
Exercise: for every item that follows, state its recorded nuclei count.
Numbers only, in %.

{"columns": ["compound", "units_symbol", "nuclei count"],
 "data": [
  ["COc1cccc(C2CC(=O)Nc3c2c(=O)n(C)c(=O)n3C)c1OC (stereo not drawn)", "%", 112],
  ["Cc1ccc(-c2ccc(=O)n(CC(=O)NCCCN3CCCCC3C)n2)cc1 (stereo not drawn)", "%", 96],
  ["Cc1[nH]nc(-c2ccc(O)cc2O)c1Oc1ccccc1", "%", 175],
  ["CCN(CC)CCN1C(=O)C(=O)/C(=C(/O)c2c(C)[nH]c(C(=O)OC)c2C)C1c1ccccc1OC (stereo not drawn)", "%", 101]
]}

Quick one: give me nuclei count for each item below, same order please.
1. CCCCCOC(=O)Cc1c(C)nc(-c2ccccc2)[nH]c1=O
2. COc1cccc(C2CC(c3ccccc3Cl)n3nc(N)nc3N2)c1 (stereo not drawn)
3. CCC1CCCCN1CCCNC(=O)CC1Oc2ccc(C)cc2NC1=O (stereo not drawn)
4. Cn1c(-c2ccc(F)cc2)cnc1SCC(=O)Nc1ccccc1N1CCOCC1
5. COc1ccc(OCC(O)CN2C(=O)NC(C)(C)C2=O)cc1 (stereo not drawn)
6. CC(=O)NCCOc1cccc(OCCNC(C)=O)c1
7. O=C(Nn1c(C2CC2)nc2ccccc2c1=O)c1ccco1
8. N/C(=N\S(=O)(=O)c1ccc(Cl)s1)c1ccccc1

Response line:
1: 157; 2: 131; 3: 107; 4: 90.4; 5: 155; 6: 117; 7: 116; 8: 150

Required: nuclei count, one value per compound below.
1. Cc1ccc(S(=O)(=O)N2CCN(CCO)CC2)cc1-c1nnc2c3ccccc3c(C)nn12
2. COc1cc(C(=O)OCC(=O)N(C)Cc2ccccc2)cc(OC)c1OC
3. COCCCNc1nc2c(c(=O)[nH]c(=O)n2C)n1CC(O)COc1ccccc1 (stereo not drawn)
4. Cc1nc(NCc2ccco2)c2oc3ccccc3c2n1
5. Cn1c(=O)c2c(nc(NCCCO)n2C/C=C/c2ccccc2)n(C)c1=O
6. Cc1cc(C)n(-c2ccc3cccc(NS(C)(=O)=O)c3n2)n1
7. Cc1cc(C)cc(-n2nnc(C(=O)NCc3ccc4c(c3)OCO4)c2N)c1
8. Cc1cc(O)ccc1-c1cnc2ccccc2n1

Response line:
1. 81
2. 119
3. 128
4. 96.4
5. 153
6. 107
7. 108
8. 166

Give me nuclei count for each of these compounds, listed below.
1. COc1ccc(/C(O)=C2\C(=O)C(=O)N(CCN(C)C)C2c2cccc(OC)c2OC)cc1Cl (stereo not drawn)
2. CCOc1ccc2nc(SCc3ccc(C(=O)OC)o3)[nH]c2c1

Response line:
1: 170; 2: 112

Prompt line: Tell me its nuclei count given Brc1ccc2[nH]c3nc(SCCN4CCOCC4)nnc3c2c1 as the entry.
Response line: 114
